Assay: refractive index (Na D-line) (dimensionless)
Details: 298.15 K; 101.33 kPa; Liquid; Standard Abbe refractometry
EXPERIMENTAL ENDPOINT: refractive index
Give bare numbers.

Below: 4 molecules and their reported refractive index.
1) CCO = 1.3591
2) CC(C)CO = 1.3939
3) CN(C)C=O [dimethylformamide] = 1.4282
4) CC(C)(C)O = 1.3852

Now take the following molecule into account.
Inquiry: Entry under review: CCC(C)O (stereo not given) . Reported refractive index?
Reply text: 1.3953

====

Kindly supply the reported mass density values for the records listed here.
Settings: 298.15 K; 101.33 kPa; Liquid
Give bare numbers, in kg/m3.

Below: 4 compounds and their reported mass density.
1. CC(C)(C)O [2-methylpropan-2-ol] = 781.2
2. CN(C)C=O [dimethylformamide] = 943.9
3. CCO [ethanol] = 784.9
4. CC(C)CO [2-methyl-1-propanol] = 797.8

Inquiry: Entry under review: CCC(C)O (stereo not given) [butan-2-ol] . Reported mass density?
Reply text: 802.4

====

Assay: refractive index (Na D-line) (dimensionless)
Conditions: 293.15 K; 101.33 kPa; Liquid; Standard Abbe refractometry
EXPERIMENTAL ENDPOINT: refractive index
Give bare numbers.

For the 3 compounds below, give their refractive index values.
1. ClCCCl
2. ClC=C(Cl)Cl
3. ClC(Cl)=C(Cl)Cl

Reply text:
[1.4448, 1.4782, 1.5058]

Inquiry: Entry under review: `ClC(Cl)C(Cl)Cl` . Reported refractive index?
Reply text: 1.494

====

Conditions: 293.15 K; 101.33 kPa; Liquid
± gives the expanded uncertainty stated by the source.
Kindly supply the reported mass density values for the records listed here.

Below: 3 molecules and their reported mass density.
1. ClCCCl = 1252.1 ± 3.8 kg/m3
2. ClC(Cl)C(Cl)Cl = 1594.5 ± 5.1 kg/m3
3. ClC(Cl)=C(Cl)Cl = 1622.8 ± 5.3 kg/m3

Now take the following molecule into account.
Inquiry: Entry under review: `ClC=C(Cl)Cl` . Reported mass density?
Reply text: 1464 ± 4.6 kg/m3
